Some compounds, each annotated with its measured pIC50.
test system: 475296-252-R-J1-PDC spheroid viability; experiment: Anticancer human tumor 475296-252-R-J1-PDC patient-derived rectal carcinoma cell line growth inhibition [PI3K]; conditions: curve of first compound; second compound 10 µM; spheroids with HUVEC and MSC;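 further: spheroids exposed to agents for seven days before readout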
pIC50: −log10 of the molar value.

[
  {
    "COMPOUND": "CCCS(=O)(=O)Nc1ccc(F)c(C(=O)c2c[nH]c3ncc(-c4ccc(Cl)cc4)cc23)c1F + Cc1nc(NC(=O)N2CCCC2C(N)=O)sc1-c1ccnc(C(C)(C)C(F)(F)F)c1",
    "EXPERIMENTAL_ENDPOINT": "pIC50",
    "RESULT": "< 5.00"
  },
  {
    "COMPOUND": "CC(C)NCC(C(=O)N1CCN(c2ncnc3c2C(C)CC3O)CC1)c1ccc(Cl)cc1 (stereo not drawn) + Cc1nc(NC(=O)N2CCCC2C(N)=O)sc1-c1ccnc(C(C)(C)C(F)(F)F)c1",
    "EXPERIMENTAL_ENDPOINT": "pIC50",
    "RESULT": "< 5.00"
  }
]

Now look at this one.
Looking for the measured pIC50 of CCN1CCN(Cc2ccc(Nc3ncc(F)c(-c4cc(F)c5nc(C)n(C(C)C)c5c4)n3)nc2)CC1 + CC(Nc1ncnc2nc[nH]c12)c1cc2cccc(Cl)c2c(=O)n1-c1ccccc1 , can you help? < 6.00
